# System: CCRF-CEM
# assay overview: NCI tumour cell line growth inhibition, 48 h
The source made the active and inactive calls. No stated cut-off is given here; in the data, active = GI50 up to about 1.1 µM and inactive = higher.
// classify into class 1 for active, class 0 for inactive

Prompt: Tell me the assay call for Nc1nc(-c2ccco2)cc(-c2ccco2)n1 please.
Completion: class 0

Prompt: Could you please tell me the result logged for COc1ccc(-n2sc3ncc([N+](=O)[O-])cc3c2=O)cc1 in this assay?
Completion: class 0

Prompt: // outcome(item) with item = CCCc1[nH]nc(C(N)=O)c1/N=N/N(C)C
Completion: class 0

Prompt: Kindly provide the recorded test outcome for the following molecule: COc1cc(C2S/C(=C/c3ccccc3)C(=O)N2c2ccc([N+](=O)[O-])cc2)cc(OC)c1OC (centres undefined)
Completion: class 0

Prompt: Assay outcome for Cc1ccc(S(=O)(=O)OCC23CCC(C2)C2CC23)cc1 (centres undefined) : what was it?
Completion: class 0

====

# System: SW-620
# assay overview: NCI tumour cell line growth inhibition, 48 h
The source made the active and inactive calls. Cut-off read from the data, not from the text of the source: active = GI50 up to about 1.1 µM and inactive = higher.
measure name: GI50

Recorded GI50, per entry:
>  <molecule>
CC(=O)Nc1ccc2nncnc2c1

>  <GI50>
> 100 µM (inactive)

$$$$
>  <molecule>
C(/Cc1ccc2c(c1)OCO2)=N\N=C1NCCCN1

>  <GI50>
> 100 µM (inactive)

$$$$
>  <molecule>
CCCCCC/C=C1\CCC(CN2CCCC2)C1=O (stereo unspecified)

>  <GI50>
> 28.2 µM (inactive)

$$$$
>  <molecule>
N#Cc1c(-c2ccccc2)[nH]c2ccccc2c1=O

>  <GI50>
91 µM (inactive)

$$$$
>  <molecule>
COc1cc2c(c(OC)c1)C(=O)O[C@H](C)CCCC/C=C/C2

>  <GI50>
7.94 µM (inactive)

$$$$

Short answer for OCC(O)C(O)C(O)C(O)c1nnn[nH]1 (stereo unspecified) : GI50 was > 100 µM (inactive)

====

Measured GI50 by item
# Tested on: XF498
# assay overview: NCI tumour cell line growth inhibition, 48 h
Where a name gives a salt, the structure may show the parent alone. Active and inactive are the calls of the source. Cut-off read from the data, not from the text of the source: active = GI50 up to about 1.1 µM and inactive = higher.

The recorded GI50 for entry Oc1c2c(nc3cc4c(cc13)OCO4)-c1ccccc1CC2 equals > 100 µM (inactive)

C#CCNC(=O)N(CC#C)N=O has a reported GI50 of > 100 µM (inactive)

Record summary for CCN(CC)CCNc1ccc(CO)c2sc3ccccc3c(=O)c12 [HYCANTHONE MESYLATE] : reported GI50 = 11.6 µM (inactive)

GET /value?item= N#CCCN(CCC#N)c1ccc(/C=C2\N=C(COc3ccc(Cl)cc3Cl)OC2=O)cc1 &field=GI50 returns > 100 µM (inactive)

====

# Test system: SN12C
# assay overview: NCI tumour cell line growth inhibition, 48 h
Activity calls are given as the source filed them. No stated cut-off is given here; in the data, active = GI50 up to about 1.1 µM and inactive = higher.
Reported GI50 values for a set of compounds

>  <compound>
CN(C)c1ccc(/C=C/c2ccnc3ccccc23)cc1N

>  <measured target>
SN12C

>  <GI50>
14.8 µM (inactive)

$$$$

Sure, the documented GI50 for OC(c1cccnc1Cl)c1nc2ccccc2c2ccnc(Cl)c12 (stereo not drawn) is 3.6 µM (inactive)

Notebook: O=C1/C(=C/c2ccc(Cl)cc2)N=C(c2ccccc2)N1c1nc2c(Cl)cc(Cl)cc2s1 , GI50 read as 23.1 µM (inactive)

So for CCCc1[nH]nc(C(N)=O)c1/N=N/N(C)C , the logged GI50 turned out to be 48.3 µM (inactive)

Value of GI50 reported for the compound N=C(c1ccccc1)N1CCCCC1 is > 100 µM (inactive)

Reported GI50 for CC12O[C@H](c3ccccc3)[C@H](c3ccccc3)N1C(=O)C1(C(=O)OCc3ccccc3)CC12 (stereo partly drawn) was > 100 µM (inactive)

GI50 in this record for O=C(O)c1ccc(SSc2ccc(C(=O)O)cn2)nc1 : > 100 µM (inactive)

Lab note: measured GI50 of CCOC(=O)c1nc2ccc(C(F)(F)F)cc2nc1Oc1ccc(OC)cc1 was > 100 µM (inactive)

Cited source for all entries: ChEMBL document CHEMBL1201862
